Hello, the source for this data is the OligoGym collection, in case you need it.

assayed_target: SAMD10
assay_text: pooled miR-30 sensor sort-seq; sequence = guide strand; note: reference of the scale not given here
particulars: shRNA
outcome_measure: sensor-assay potency score (higher = more potent)

{"columns": ["chain", "quantitative_readout"],
 "data": [
  ["ATGCTCTCAGCTGACACCGTGT", -1.22],
  ["TGCTTCTTGAGCCACTTGCAGA", -1.33],
  ["ATAGTGGTCAGAGTACAGCCGG", -1.22],
  ["TAAATAAACAGACTCCCTGGGA", -0.205],
  ["TATGGTACAGGCCATAGTGGTC", -1.37]
]}

====

assayed_target: RBM15B
assay_text: pooled miR-30 sensor sort-seq; sequence = guide strand
particulars: shRNA
outcome_measure: sensor-assay potency score (higher = more potent)

{"columns": ["chain", "quantitative_readout"],
 "data": [
  ["TAAGAGGACCGCATAGCCGTTG", -0.808],
  ["TCGTGTGACCTCGTCAAGCTTG", -1.02],
  ["TTTAAAATAACTGCTTTTGTGA", -0.54],
  ["TTGACGTGATCAATGGTCCGAA", 0.476],
  ["TGTGACACAAACATGACGCTGG", 0.96],
  ["TTGTGACACAAACATGACGCTG", -1.03],
  ["TTTTTCAACACCAGAAGCCCAT", 0.0926],
  ["TTGCTGAGGGAGTTGCTGCTGG", -0.717]
]}

====

assayed_target: KHDRBS3
assay_text: pooled miR-30 sensor sort-seq; sequence = guide strand
particulars: shRNA
Listing of entries alongside the reported sensor-assay potency score (higher = more potent).
outcome_measure: sensor-assay potency score (higher = more potent)

{"columns": ["chain", "quantitative_readout"],
 "data": [
  ["TGGTACTACAACTCCAACTGGC", -0.54],
  ["TTCTATTTCTTGGTTCACCAGG", -0.397],
  ["TAGTCCACTCTTCTTGCCCGTA", -0.553],
  ["TACTACAACTCCAACTGGCCGG", -0.46],
  ["TAAGTCTCTTGTGTCGGGGGTG", -0.204],
  ["TTGCTGTCCTCGCTGAAGGTGC", -1.17],
  ["TTGTGTCTTGAGTTAGTCCACT", -0.733],
  ["TTGAGTTAGTCCACTCTTCTTG", 0.078],
  ["TTGAGATGGAAGTACTTCGCTT", -0.344]
]}

====

assayed_target: NMUR2
assay_text: pooled miR-30 sensor sort-seq; sequence = guide strand
particulars: shRNA
Listing of entries alongside the reported sensor-assay potency score (higher = more potent).
outcome_measure: sensor-assay potency score (higher = more potent)

{"columns": ["chain", "quantitative_readout"],
 "data": [
  ["TTTCTTTAGTCTGAGTGCCATG", -1.41],
  ["TGGATCTTCTAGTTTCTGCTGG", 0.385],
  ["TACATGAGTTGTAAGAGCCATT", -0.996],
  ["TTGTTGACTGATTTTCTGCAGG", -0.441],
  ["TAGTTTGTTCTTGACATCTGTT", -0.227],
  ["TTGTTCTTGACATCTGTTCACT", -0.626]
]}

====

Listing of entries alongside the reported sensor-assay potency score (higher = more potent).
assayed_target: DNAJC19
assay_text: pooled miR-30 sensor sort-seq; sequence = guide strand
particulars: shRNA
outcome_measure: sensor-assay potency score (higher = more potent)

{"columns": ["chain", "quantitative_readout"],
 "data": [
  ["TTTTTTAAAATTGTAGCTCTGA", 0.364],
  ["TTCGTCGATGAGCATCTCTTAT", -1.36],
  ["TTTAAAAGCATAATTCGTCGAT", 0.123],
  ["TAAATCTTTAGCTTCATTGATT", -0.54],
  ["TTAAAAGCATAATTCGTCGATG", -0.449],
  ["TTGATATTGAGAACATTTCAGT", -0.702],
  ["TTCACTTTTAAATACAAGGTTC", -0.645]
]}

====

Listing of entries alongside the reported sensor-assay potency score (higher = more potent).
assayed_target: FIGF
assay_text: pooled miR-30 sensor sort-seq; sequence = guide strand
particulars: shRNA
outcome_measure: sensor-assay potency score (higher = more potent)

{"columns": ["chain", "quantitative_readout"],
 "data": [
  ["TTACAGACACACTCGCAACGAT", -0.443],
  ["TAGTGTTTCAATGTCATAGAAA", -1.28],
  ["TTGCACTCAAAGCAACTGCAGT", -1.07],
  ["TAGCATGTCAATAGGACAGAGT", -0.483],
  ["TTACATTTGTTGCTATCCCATA", -0.837],
  ["TAGAAGACATCCATCAATGAAC", -1.15],
  ["TTCTTTGCCATTCTTCATCTAT", -0.386],
  ["TAATCAGTCATATGACACCTGC", -0.697],
  ["TACAGACACACTCGCAACGATC", -1.17],
  ["TGCAACAGCCACCACATCGGAA", -0.975],
  ["TGTTTTACAGACACACTCGCAA", 0.505],
  ["TTCATCTATAACTTTTAGTGTT", -0.356],
  ["ATCTTCGTCAAACATCATGTGT", -0.944],
  ["TGATCTGCTGTTCAGATCGTTC", -1.69],
  ["TTCTGCATAAAAAAGAATCAGA", -0.887]
]}

====

assayed_target: EPHA8
assay_text: pooled miR-30 sensor sort-seq; sequence = guide strand
particulars: shRNA
outcome_measure: sensor-assay potency score (higher = more potent)

{"columns": ["chain", "quantitative_readout"],
 "data": [
  ["TTCTCGTAGTACTTGATCTCAT", -0.461],
  ["TCGATTTTGAGGAACTGGCTTT", -0.582],
  ["TTGATCTCAGCATAGACGCGCC", -0.595],
  ["TCCAGAGTCACTGATGTCCCAT", -0.773],
  ["TAGTACTTGATCTCATACTCCA", -0.186],
  ["TCTCGTAGTACTTGATCTCATA", -1.09],
  ["TGATAGTGCATCTTCTCCTCGT", 0.0465],
  ["TAGCCGGCACTGCACACGCATT", -1.71]
]}

====

assayed_target: C1orf109
assay_text: pooled miR-30 sensor sort-seq; sequence = guide strand
particulars: shRNA
So basically: sensor-assay potency score (higher = more potent) at -0.2 or higher? That is rule met. Lower than -0.2? That is rule not met.

{"columns": ["chain", "class_assignment"],
 "data": [
  ["TATGTATCGATGATAGCACGTT", "rule met"],
  ["TTTCTCTTCAGGTACGACTTTC", "rule not met"],
  ["TTATTAATAATAGTTATCTGGT", "rule met"],
  ["TTGAAAAATATCTATACCCTTT", "rule not met"],
  ["TTTAGGTCCACAATAGAGGAAA", "rule not met"],
  ["ATCTTGTACAAGATCCTGGTGT", "rule not met"],
  ["TTTTTAAAAAAAGACAACCTAA", "rule not met"],
  ["TAGATGAAGGCAGCAGACCTTG", "rule not met"],
  ["TTCTTTAGAAACATCAGGGTTC", "rule met"]
]}

====

assayed_target: ACSL3
assay_text: pooled miR-30 sensor sort-seq; sequence = guide strand
particulars: shRNA
So basically: sensor-assay potency score (higher = more potent) at 0.03 or higher? That is satisfied. Lower than 0.03? That is not satisfied.

{"columns": ["chain", "class_assignment"],
 "data": [
  ["TTGCTGAAATAGCAGCTTCGGA", "not satisfied"],
  ["TAATTTTTGAAGACTGATCTGC", "satisfied"],
  ["TAATTCTAGAACATGGGCCAGA", "not satisfied"],
  ["TATTGTAGTCCCACACTTCGGA", "satisfied"],
  ["TTCTTTACTAGTAATGATGTTG", "satisfied"],
  ["TACTAGTGGAAGATTCTTCAAA", "not satisfied"],
  ["TTTTTGAAGACTGATCTGCTAA", "satisfied"],
  ["TTTAGCTTCATGGTAGATGGTT", "satisfied"],
  ["TACAGAGCCACCTTTGTCCATT", "not satisfied"],
  ["AATCTTTAAGCATCCATCGGGT", "not satisfied"],
  ["TTTTTCTTGTCTTGACTCGGAG", "not satisfied"],
  ["TTTACTAGTAATGATGTTGGTC", "satisfied"],
  ["TTATCTAAAGTATCACATCCAG", "not satisfied"]
]}

====

Listing of entries alongside the reported sensor-assay potency score (higher = more potent).
assayed_target: C10orf129
assay_text: pooled miR-30 sensor sort-seq; sequence = guide strand
particulars: shRNA
outcome_measure: sensor-assay potency score (higher = more potent)

{"columns": ["chain", "quantitative_readout"],
 "data": [
  ["TGACACAGAAACACACAGGCTC", 0.78],
  ["TAGCTCTTATCTGACACCAGGA", -0.145],
  ["AACTTCTTGAAATCCAACCACC", -1.25],
  ["TTTAGAACAGTCTCAGGGCAGA", -0.497],
  ["ATACTGGGAATACTCGACCATT", -1.34],
  ["ATAGCTCTTATCTGACACCAGG", -1.02],
  ["TTATCTGACACCAGGAGCTTGG", -0.78]
]}
